The reader will find reported IC50 values listed item by item below.
test system: Trypanosoma brucei brucei; assay: Antitrypanosomal activity against Trypanosoma brucei brucei assessed as trypanosome lysis using recombinant APOL1 protein G1 variant and measured by Alamar blue based fluorescene assay; assay type: functional, organism-based

## Task Param request: IC50 | system Trypanosoma brucei brucei | item `O=C(CCc1c(-c2ccc(F)cc2)[nH]c2ccccc12)N[C@@H]1C(=O)NC[C@H]1O`
## Result < 250 nM

## Task Param request: IC50 | system Trypanosoma brucei brucei | item `O=C(CCc1c(-c2cc(F)cc(F)c2)[nH]c2ccccc12)N[C@@H]1C(=O)NC[C@H]1O`
## Result 250 nM

## Task Param request: IC50 | system Trypanosoma brucei brucei | item `O=C(CCc1c(-c2ccc(F)cc2)[nH]c2c(Cl)cccc12)N[C@@H]1C(=O)NC[C@H]1O`
## Result < 250 nM
